All values here come from ChEMBL document CHEMBL3994579.

Measured MIC by item
Test system: Staphylococcus epidermidis
test.summary: Antibacterial activity against penicillin-resistant Staphylococcus epidermidis clinical isolate by broth microdilution method
Format: functional

// below: answered molecules
>  <test.smiles>
CC[C@H]1OC(=O)[C@H](C)[C@@H](OC(=O)Nc2cccc(C)c2)[C@H](C)[C@@H](O[C@@H]2O[C@H](C)C[C@H](N(C)C)[C@H]2O)[C@](C)(O)C[C@@H](C)CN(C)[C@H](C)[C@@H](OC(=O)NCc2ccc(C)cc2)[C@]1(C)O

>  <assay.system>
Staphylococcus epidermidis

>  <MIC>
4 µg/mL

$$$$
>  <test.smiles>
CC[C@H]1OC(=O)[C@H](C)[C@@H](O)[C@H](C)[C@@H](O[C@@H]2O[C@H](C)C[C@H](N(C)C)[C@H]2OC(=O)Nc2cccc(C)c2)[C@](C)(O)C[C@@H](C)CN(C)[C@H](C)[C@H]2OC(=O)O[C@@]21C

>  <assay.system>
Staphylococcus epidermidis

>  <MIC>
32 µg/mL

$$$$
>  <test.smiles>
CC[C@H]1OC(=O)[C@H](C)[C@@H](OC(=O)Nc2ccccc2C)[C@H](C)[C@@H](O[C@@H]2O[C@H](C)C[C@H](N(C)C)[C@H]2OC(C)=O)[C@](C)(O)C[C@@H](C)CN(C)[C@H](C)[C@H]2OC(=O)O[C@@]21C

>  <assay.system>
Staphylococcus epidermidis

>  <MIC>
128 µg/mL

$$$$
>  <test.smiles>
CC[C@H]1OC(=O)[C@H](C)[C@@H](OC(=O)Nc2ccccc2F)[C@H](C)[C@@H](O[C@@H]2O[C@H](C)C[C@H](N(C)C)[C@H]2OC(C)=O)[C@](C)(O)C[C@@H](C)CN(C)[C@H](C)[C@H]2OC(=O)O[C@@]21C

>  <assay.system>
Staphylococcus epidermidis

>  <MIC>
64 µg/mL

$$$$

In the following, a different molecule is considered.
Documented MIC of "CC[C@H]1OC(=O)[C@H](C)[C@@H](O)[C@H](C)[C@@H](O[C@@H]2O[C@H](C)C[C@H](N(C)C)[C@H]2OC(=O)n2ccnc2)[C@](C)(O)C[C@@H](C)CN(C)[C@H](C)[C@H]2OC(=O)O[C@@]21C" : 32 µg/mL
